Attribution: ChEMBL document CHEMBL1134197

- assayed.target: Bifunctional glutamate/proline--tRNA ligase (Homo sapiens, UniProt P07814)
- Sequence (P07814 whole entry): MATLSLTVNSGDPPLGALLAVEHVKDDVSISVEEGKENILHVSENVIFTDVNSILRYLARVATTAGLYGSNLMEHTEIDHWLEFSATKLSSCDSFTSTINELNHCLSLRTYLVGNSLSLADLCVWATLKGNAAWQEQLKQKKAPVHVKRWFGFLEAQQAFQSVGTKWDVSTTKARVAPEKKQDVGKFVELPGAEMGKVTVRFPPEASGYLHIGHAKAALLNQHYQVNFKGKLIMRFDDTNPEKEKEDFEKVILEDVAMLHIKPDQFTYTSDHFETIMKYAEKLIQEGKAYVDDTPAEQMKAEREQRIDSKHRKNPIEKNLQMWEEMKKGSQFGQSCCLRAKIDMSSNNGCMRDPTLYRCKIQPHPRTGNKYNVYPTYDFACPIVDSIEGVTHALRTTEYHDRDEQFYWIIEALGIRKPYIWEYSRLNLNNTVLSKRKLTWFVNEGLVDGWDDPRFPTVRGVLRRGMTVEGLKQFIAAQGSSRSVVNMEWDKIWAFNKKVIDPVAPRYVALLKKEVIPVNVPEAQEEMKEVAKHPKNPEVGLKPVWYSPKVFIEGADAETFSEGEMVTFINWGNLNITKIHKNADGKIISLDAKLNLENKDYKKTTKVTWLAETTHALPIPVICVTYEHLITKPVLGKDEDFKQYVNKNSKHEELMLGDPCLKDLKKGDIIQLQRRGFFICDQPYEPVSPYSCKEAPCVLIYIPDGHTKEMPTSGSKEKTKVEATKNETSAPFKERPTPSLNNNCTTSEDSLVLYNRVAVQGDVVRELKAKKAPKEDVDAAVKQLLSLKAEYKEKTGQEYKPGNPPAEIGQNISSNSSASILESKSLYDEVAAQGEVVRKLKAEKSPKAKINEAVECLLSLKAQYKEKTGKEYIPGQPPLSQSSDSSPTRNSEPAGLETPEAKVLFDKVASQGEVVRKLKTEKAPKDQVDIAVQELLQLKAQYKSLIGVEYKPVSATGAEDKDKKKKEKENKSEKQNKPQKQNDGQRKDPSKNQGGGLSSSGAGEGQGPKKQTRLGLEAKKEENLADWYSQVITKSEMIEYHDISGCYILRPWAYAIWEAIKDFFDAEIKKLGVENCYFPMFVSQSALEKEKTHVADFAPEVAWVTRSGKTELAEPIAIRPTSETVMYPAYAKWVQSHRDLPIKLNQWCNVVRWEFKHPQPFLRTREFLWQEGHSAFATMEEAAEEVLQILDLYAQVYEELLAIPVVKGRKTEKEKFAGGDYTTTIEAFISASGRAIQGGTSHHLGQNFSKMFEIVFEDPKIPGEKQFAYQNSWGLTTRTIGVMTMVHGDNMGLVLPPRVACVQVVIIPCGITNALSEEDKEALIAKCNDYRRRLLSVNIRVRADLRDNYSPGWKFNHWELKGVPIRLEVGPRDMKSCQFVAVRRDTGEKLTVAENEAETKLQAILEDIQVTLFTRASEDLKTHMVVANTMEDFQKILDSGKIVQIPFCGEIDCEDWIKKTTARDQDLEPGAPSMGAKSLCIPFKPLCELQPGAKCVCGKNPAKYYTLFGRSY
- test.protocol: Aminoacylation activity against human prolyl-tRNA synthetase
pIC50: −log10 of the molar value.
quantity: pIC50

molecule.smiles	assayed.target	reported
O=C(O)c1cc(-c2ccc(C(F)(F)F)cc2)nc2ccccc12	Bifunctional glutamate/proline--tRNA ligase (Homo sapiens, UniProt P07814)	< 4.00
O=C(O)c1cc(-c2ccc(Br)cc2)nc2ccc(Br)cc12	Bifunctional glutamate/proline--tRNA ligase (Homo sapiens, UniProt P07814)	< 4.70
O=C(O)c1cc(-c2ccc(Br)cc2)nc2ccc(OC(F)(F)F)cc12	Bifunctional glutamate/proline--tRNA ligase (Homo sapiens, UniProt P07814)	< 4.00
Cc1cc(Cl)cc2c(C(=O)OCc3ccco3)cc(-c3ccc(Br)cc3)nc12	Bifunctional glutamate/proline--tRNA ligase (Homo sapiens, UniProt P07814)	< 4.00
O=C(O)c1cc(-c2ccc(Br)cc2)nc2ccc(-c3ccc(O)cc3)cc12	Bifunctional glutamate/proline--tRNA ligase (Homo sapiens, UniProt P07814)	4.46
O=C(O)c1cc(-c2ccc(Cl)s2)nc2ccccc12	Bifunctional glutamate/proline--tRNA ligase (Homo sapiens, UniProt P07814)	< 4.00

* * *

- assayed.target: Bifunctional glutamate/proline--tRNA ligase (Homo sapiens, UniProt P07814)
- test.protocol: Aminoacylation activity against human prolyl-tRNA synthetase
quantity: IC50

molecule	quantity	reported
O=C(O)c1cc(-c2ccco2)nc2ccccc12	IC50	> 100 µM
Cc1cc(Cl)cc2c(-c3nn[nH]n3)cc(-c3ccc(Br)cc3)nc12	IC50	> 100 µM
O=C(O)c1cc(-c2ccccc2)nc2ccccc12 [CINCHOPHEN]	IC50	> 100 µM

* * *

Protein target, amino acids: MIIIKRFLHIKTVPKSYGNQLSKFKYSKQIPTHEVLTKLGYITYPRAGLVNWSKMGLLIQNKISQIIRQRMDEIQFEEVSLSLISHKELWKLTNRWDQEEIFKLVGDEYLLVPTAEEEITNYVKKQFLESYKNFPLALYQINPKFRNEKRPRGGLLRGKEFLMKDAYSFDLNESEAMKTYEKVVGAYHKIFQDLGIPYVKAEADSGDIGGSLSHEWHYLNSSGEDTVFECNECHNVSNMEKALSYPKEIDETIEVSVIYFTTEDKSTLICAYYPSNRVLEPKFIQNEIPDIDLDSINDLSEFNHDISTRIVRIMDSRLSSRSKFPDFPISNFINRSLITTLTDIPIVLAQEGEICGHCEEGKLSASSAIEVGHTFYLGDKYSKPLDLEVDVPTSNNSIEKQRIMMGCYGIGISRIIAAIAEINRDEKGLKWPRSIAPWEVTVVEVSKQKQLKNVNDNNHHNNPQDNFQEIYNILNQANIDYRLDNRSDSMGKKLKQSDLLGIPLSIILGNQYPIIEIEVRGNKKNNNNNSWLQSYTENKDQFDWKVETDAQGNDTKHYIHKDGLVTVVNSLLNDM
pIC50: −log10 of the molar value.
quantity: pIC50

molecule.smiles	quantity	reported
O=C(O)c1cc(-c2ccc(Br)cc2)nc2ccc(S(=O)(=O)O)cc12	pIC50	4.82
O=C(O)c1cc(-c2ccc(Br)cc2)nc2cc(Cl)cc(Cl)c12	pIC50	6.85
O=C(O)c1cc(-c2ccc(Br)cc2)nc2ccc(-c3ccc(O)cc3)cc12	pIC50	6.46
Cc1c(F)ccc2c(C(=O)O)cc(-c3ccc(Br)cc3)nc12	pIC50	6.92
O=C(O)c1cc(-c2ccc(Br)cc2)nc2ccc(OC(F)(F)F)cc12	pIC50	7.28
O=C(O)c1cc(-c2ccc(Br)cc2)nc2ccc(I)cc12	pIC50	7.72
O=C(O)c1cc(-c2ccc(Br)cc2)nc2c(C(F)(F)F)cc(Br)cc12	pIC50	6.66
O=C(O)c1cc(-c2ccc(Cl)c(Cl)c2)nc2ccccc12	pIC50	4.72
Cc1cc(Cl)cc2c(C(=O)OCc3ccco3)cc(-c3ccc(Br)cc3)nc12	pIC50	7.15
Cc1cc(Cl)cc2c(C(=O)OCc3ccc(Cl)c(Cl)c3)cc(-c3ccc(Br)cc3)nc12	pIC50	7.70
